Tested on: tubulin
Experiment: EC50 for the polymerization of tubulin
Format: biochemical
Conditions: additional studies
Description: Discodermolide was analyzed for its interactions with tubulin. Tubulin polymerization was monitored turbidimetrically at 350 nm with an electronic temperature controller. Reaction mixtures contained 0.1M 4-morpholine-ethanesulfonate (pH 6.9), 1.0 mg/ml (10 μM) electrophoretically-homogenous bovine brain tubulin freed of unbound nucleotide by gel filtration, 0.5 mg/ml heat-treated MAPs, 100 μM GTP, and 4% (v/v) dimethylsulfoxide. […]
Listed next: entries and their corresponding EC50.
Could you give the number and then its unit, please?

Quick one: EC50 for C=C/C=C\C(C)C(OC(N)=O)C(C)C(O)C(C)C/C(C)=C\C(C)C(O)C(C)/C=C\C(O)CC1OC(=O)C(C)C(O)C1C (single isomer, unassigned) [discodermolide] ?
2.7 µM

And what about the compound CC(=O)O[C@H]1C(=O)[C@@]2(C)[C@H]([C@H](OC(=O)c3ccccc3)[C@]3(O)C[C@H](OC(=O)[C@H](O)[C@@H](NC(=O)c4ccccc4)c4ccccc4)C(C)=C1C3(C)C)[C@]1(OC(C)=O)CO[C@@H]1C[C@@H]2O [taxol, reference compound] ?
23 µM

---

test system: 70Z/3 Pre-B; assay: Constitutive proliferation of murine lymphoid 70Z/3 Pre-B cells; format: cell-based; conditions: Mus musculus; 70Z/3 Pre-B proliferation; best response
Quantity measured: IC50 (nM)
Return type: number; implicit unit nM.

Item C=C/C=C\C(C)C(OC(N)=O)C(C)C(O)C(C)C/C(C)=C\C(C)C(O)C(C)/C=C\C(O)CC1OC(=O)C(C)C(O)C1C (single isomer, unassigned) [discodermolide] with 70Z/3 Pre-B - IC50?
3

---

assay: Constitutive proliferation of human non-lymphoid normal (foreskin) fibroblasts; conditions: human, foreskin fibroblasts
Quantity measured: CC50

Requested field: CC50. Item: C=C/C=C\C(C)C(OC(N)=O)C(C)C(O)C(C)C/C(C)=C\C(C)C(O)C(C)/C=C\C(O)CC1OC(=O)C(C)C(O)C1C (single isomer, unassigned) [discodermolide]
> 3 µM

---

system: EL-4 Thymoma; test: Constitutive proliferation of murine lymphoid EL-4 thymoma cells; assay type: cell-based; conditions: Mus musculus; EL-4 Thymoma proliferation; best response
Quantity measured: IC50 (nM)
Report only the number, with the unit nM understood.

Quick check: IC50 of C=C/C=C\C(C)C(OC(N)=O)C(C)C(O)C(C)C/C(C)=C\C(C)C(O)C(C)/C=C\C(O)CC1OC(=O)C(C)C(O)C1C (single isomer, unassigned) [discodermolide] ?
30

---

test system: murine lymphoid and non-lymphoid cell lines; assay: Constitutive proliferation of murine lymphoid and non-lymphoid cell lines (summary); format: cell-based; details: Mus musculus, read-out: IC50 values, range over murine cell lines
pIC50: −log10 of the molar value.
Quantity measured: pIC50

# lookup: pIC50 of C=C/C=C\C(C)C(OC(N)=O)C(C)C(O)C(C)C/C(C)=C\C(C)C(O)C(C)/C=C\C(O)CC1OC(=O)C(C)C(O)C1C (single isomer, unassigned) [discodermolide]
7.22 to 8.52
